assay.system: T1, MAGE A3 peptide on HLA-A*01:01 (human)
T1 peptide: EVDPIGHLY
test.summary: multimer staining
readout.name: binding result

>  <binder>
TCR54 (TCR, V domains shown) Valpha: EDQVTQSPEALRLQEGESSSLNCSYTVSGLRGLFWYRQDPGKGPEFLFTLYSAGEEKEKERLKATLTKKESFLHITAPKPEDSATYLCAVYNQAGTALIFGKGTTLSVSS Vbeta: EAQVTQNPRYLITVTGKKLTVTCSQNMNHEYMSWYRQDPGLGLRQIYYSMNVEVTDKGDVPEGYKVSRKEKRNFPLILESPSPNQTSLYFCASSLYSTDTQYFGPGTRLTVL

>  <result>
recognises

$$$$
>  <binder>
TCR2 (TCR, V domains shown) Valpha: ILNVEQSPQSLHVQEGDSTNFTCSFPSSNFYALHWYRWETAKSPEALFVMTLNGDEKKKGRISATLNTKEGYSYLYIKGSQPEDSATYLCAFSNARLMFGDGTQLVVKP Vbeta: DTAVSQTPKYLVTQMGNDKSIKCEQNLGHDTMYWYKQDSKKFLKIMFSYNNKELIINETVPNRFSPKSPDKAHLNLHINSLELGDSAVYFCASSQEAGTGSYNEQFFGPGTRLTVL

>  <result>
recognises

$$$$
>  <binder>
TCR346 (TCR) alpha TRAV29DV5 TRAJ48 CDR3: CAARDISNFGNEKLTF Vbeta: GAVVSQHPSRVICKSGTSVKIECRSLDFQATTMFWYRQFPKQSLMLMATSNEGSKATYEQGVEKDKFLINHASLTLSTLTVTSAHPEDSSFYICSARDHTSGTYEQYFGPGTRLTVT

>  <result>
recognises

$$$$
>  <binder>
TCR4 (TCR, V domains shown) Valpha: AQSVAQPEDQVNVAEGNPLTVKCTYSVSGNPYLFWYVQYPNRGLQFLLKYITGDNLVKGSYGFEAEFNKSQTSFHLKKPSALVSDSALYFCAVRDAMGGSYIPTFGRGTSLIVHP Vbeta: DGGITQSPKYLFRKEGQNVTLSCEQNLNHDAMYWYRQDPGQGLRLIYYSQIVNDFQKGDIAEGYSVSREKKESFPLTVTSAQKNPTAFYLCASSTGISEQFFGPGTRLTVL

>  <result>
recognises

$$$$
